Target: T1, LGP2 RD wt (human, UniProt Q96C10 537-678)
T1 sequence: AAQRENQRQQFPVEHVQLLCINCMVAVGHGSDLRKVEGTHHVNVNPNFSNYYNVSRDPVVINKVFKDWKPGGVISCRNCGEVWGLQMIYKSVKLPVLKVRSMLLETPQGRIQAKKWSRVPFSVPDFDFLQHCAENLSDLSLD
Test: fluorescence anisotropy
Measured metric: pKd
Note on pKd: it is the negative log10 of concentration, concentration in mol/L.

Record 25 bp dsRNA (dsRNA) RNA 1: GCUUGUCGGGAGCGCCACCCUCUGC RNA 2: GCAGAGGGUGGCGCUCCCGACAAGC , field pKd: 7.17
